FYI, the data here is from patent US20250011363A1.

target: acetylcholine receptor; experiment: SPR, AchR on chip, peptide 10 uM
Class key for Binding affinity (RU) values: group 1 (below 60 RU), group 2 (60 RU to below 70 RU), group 3 (70 RU or more)

Class (by measured Binding affinity (RU)) for KWYRR [5mer-202]
group 2

Form field 'band' for KGLQK [5mer-508]
group 2

Into which bin does this binder go? KGLTR [5mer-229]
group 3

Category of KRIQR [5mer-325] , please.
group 1

Kindly state the category for this binder: KRFRK [5mer-521]
group 3

Any idea which band KVQYK [5mer-218] is in?
group 3

Kindly state the category for this binder: RSQLK [5mer-313]
group 3

Classify this binder: KWLLR [5mer-222]
group 3

// bin(item) where item = KLFSR [5mer-315]
group 3

Input KWRYR [5mer-240] ; output its category
group 1

Please classify: RRLQR [5mer-31]
group 2

Bin? KLYTK [5mer-16]
group 2

Class? Entry: RVQCK [5mer-1]
group 1

Lab note: sort RQYTK [5mer-213] into the matching Binding affinity (RU) band.
group 3

Form field 'band' for KLICR [5mer-208]
group 3

Quick check: band for RGYTK [5mer-242]
group 2
